Biological target: Glutamate receptor ionotropic, NMDA 2B (Homo sapiens)
Sequence (Q13224 whole entry): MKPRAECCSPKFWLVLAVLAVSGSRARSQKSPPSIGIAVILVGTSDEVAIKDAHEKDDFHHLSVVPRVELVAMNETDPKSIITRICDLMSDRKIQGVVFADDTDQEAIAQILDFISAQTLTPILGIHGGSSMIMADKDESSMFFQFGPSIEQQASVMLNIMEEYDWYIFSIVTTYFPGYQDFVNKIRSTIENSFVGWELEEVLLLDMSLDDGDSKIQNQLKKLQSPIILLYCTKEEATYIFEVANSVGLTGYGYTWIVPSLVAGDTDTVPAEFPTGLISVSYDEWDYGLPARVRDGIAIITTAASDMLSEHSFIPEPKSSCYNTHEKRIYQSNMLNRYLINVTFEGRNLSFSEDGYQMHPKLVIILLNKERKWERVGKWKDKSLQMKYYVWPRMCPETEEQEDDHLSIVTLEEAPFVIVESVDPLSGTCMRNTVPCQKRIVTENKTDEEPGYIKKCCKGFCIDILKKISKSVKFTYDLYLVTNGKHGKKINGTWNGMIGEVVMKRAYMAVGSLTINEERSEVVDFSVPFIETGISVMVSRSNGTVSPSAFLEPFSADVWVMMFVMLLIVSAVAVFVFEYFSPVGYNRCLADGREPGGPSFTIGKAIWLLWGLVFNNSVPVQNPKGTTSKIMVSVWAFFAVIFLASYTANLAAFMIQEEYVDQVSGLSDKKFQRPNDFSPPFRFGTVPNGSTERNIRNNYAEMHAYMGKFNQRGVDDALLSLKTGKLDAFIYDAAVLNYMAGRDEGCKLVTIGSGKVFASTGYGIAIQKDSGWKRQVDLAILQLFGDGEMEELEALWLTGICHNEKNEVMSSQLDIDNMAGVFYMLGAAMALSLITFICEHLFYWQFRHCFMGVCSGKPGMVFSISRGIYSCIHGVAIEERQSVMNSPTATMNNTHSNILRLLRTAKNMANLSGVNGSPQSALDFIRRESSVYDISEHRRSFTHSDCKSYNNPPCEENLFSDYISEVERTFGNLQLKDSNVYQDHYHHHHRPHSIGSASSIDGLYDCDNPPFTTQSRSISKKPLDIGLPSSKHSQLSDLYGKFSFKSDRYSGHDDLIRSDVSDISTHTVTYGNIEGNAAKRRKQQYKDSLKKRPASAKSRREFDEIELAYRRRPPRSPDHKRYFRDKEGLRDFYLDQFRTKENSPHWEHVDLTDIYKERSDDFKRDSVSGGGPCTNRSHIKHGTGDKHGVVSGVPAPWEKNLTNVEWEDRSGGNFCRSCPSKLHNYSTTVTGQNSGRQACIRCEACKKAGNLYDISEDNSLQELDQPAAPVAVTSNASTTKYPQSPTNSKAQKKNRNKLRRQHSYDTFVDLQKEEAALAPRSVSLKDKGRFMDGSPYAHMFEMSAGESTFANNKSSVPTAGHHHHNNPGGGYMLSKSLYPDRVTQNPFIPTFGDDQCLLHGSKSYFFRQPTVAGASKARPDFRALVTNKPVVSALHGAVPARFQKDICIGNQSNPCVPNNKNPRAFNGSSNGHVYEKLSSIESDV
Assay: Displacement of [3H]ifenprodil from recombinant human GluN2B NMDA receptor (unknown origin) expressed in dexamethasone-induced mouse L-M(TK-) cell after 120 mins by microbeta scintillation counting method
Provide the recorded pKi for the entries that follow.
Give bare numbers, as −log10 of the molar value.

Cc1cccc2sc(NC(=O)CCN3CCN(CCN(C(C)C)C(C)C)CC3)nc12; 6.69
Cc1cccc2sc(NC(=O)CCN3CCN(C(C)(C)C)CC3)nc12; 6.32
Cc1cccc2sc(NC(=O)CCN3CCN(CC4CCCO4)CC3)nc12 (racemic); 6.34
CC(=O)c1ccc(N2CCN(CCC(=O)Nc3nc4c(C)cccc4s3)CC2)cc1; 6.73

Hey, can you go through the list below and give me pKi for every item?
1. Cc1cccc2sc(NC(=O)CCN3CCN(c4ccncc4)CC3)nc12
2. Cc1cccc2sc(NC(=O)CCN3CCN(CCCN(C)C)CC3)nc12
3. Cc1cccc2sc(NC(=O)CCN3CCN(C4CCCCC4)CC3)nc12

Return:
1. 6.74
2. 5.74
3. 6.67

====

Target: Sigma non-opioid intracellular receptor 1 (Cavia porcellus, UniProt Q60492)
Sequence (Q60492 whole entry): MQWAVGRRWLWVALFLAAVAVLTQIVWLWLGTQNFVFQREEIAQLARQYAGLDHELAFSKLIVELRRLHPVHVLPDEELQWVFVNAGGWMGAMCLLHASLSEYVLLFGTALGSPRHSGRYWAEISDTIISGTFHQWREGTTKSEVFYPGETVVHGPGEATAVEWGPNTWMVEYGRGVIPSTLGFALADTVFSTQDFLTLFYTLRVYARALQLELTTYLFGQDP
ASSAY_ENDPOINT: Ki (nM)
One number for each entry, in nM.

Worked cases, Ki given:
Cc1cccc2sc(NC(=O)CCN3CCN(C(C)C)CC3)nc12; 1300
CC(=O)c1ccc(N2CCN(CCC(=O)Nc3nc4c(C)cccc4s3)CC2)cc1; 1000
Cc1cccc2sc(NC(=O)CCN3CCN(Cc4ccccc4F)CC3)nc12; 1700
Cc1cccc2sc(NC(=O)CCN3CCN(Cc4cccc5ccccc45)CC3)nc12; 1000

Field: Ki. Fill in for each record below.
1. Cc1cccc2sc(NC(=O)CCN3CCN(Cc4cc(F)ccc4F)CC3)nc12
2. CCCCN1CCN(CCC(=O)Nc2nc3c(C)cccc3s2)CC1

Return:
1: 1000; 2: 204

====

Target: Sigma non-opioid intracellular receptor 1 (Cavia porcellus);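 also: radioligand displacement of [3H]-(+)-pentazocine binding to sigma1 receptor in guinea pig brain membranes, read by scintillation counting after a 120 min incubation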
ASSAY_ENDPOINT: Ki
Reply with the number, then its unit.

State recorded Ki for all listed molecules.
1. Cc1ccccc1N1CCN(CCC(=O)Nc2nc3c(C)cccc3s2)CC1
2. Cc1cccc2sc(NC(=O)CCN3CCN(CCCN(C)C)CC3)nc12
3. Cc1cccc2sc(NC(=O)CCN3CCN(C(C)(C)C)CC3)nc12
4. Cc1cccc2sc(NC(=O)CCN3CCN(C4CCN(C)CC4)CC3)nc12
5. Cc1cccc2sc(NC(=O)CCN3CCN(Cc4ccc(C(C)(C)C)cc4)CC3)nc12

Return:
1000 nM
570 nM
147 nM
6000 nM
238 nM

====

Target: Cytochrome P450 2D6 (Homo sapiens)
Sequence (P10635 whole entry): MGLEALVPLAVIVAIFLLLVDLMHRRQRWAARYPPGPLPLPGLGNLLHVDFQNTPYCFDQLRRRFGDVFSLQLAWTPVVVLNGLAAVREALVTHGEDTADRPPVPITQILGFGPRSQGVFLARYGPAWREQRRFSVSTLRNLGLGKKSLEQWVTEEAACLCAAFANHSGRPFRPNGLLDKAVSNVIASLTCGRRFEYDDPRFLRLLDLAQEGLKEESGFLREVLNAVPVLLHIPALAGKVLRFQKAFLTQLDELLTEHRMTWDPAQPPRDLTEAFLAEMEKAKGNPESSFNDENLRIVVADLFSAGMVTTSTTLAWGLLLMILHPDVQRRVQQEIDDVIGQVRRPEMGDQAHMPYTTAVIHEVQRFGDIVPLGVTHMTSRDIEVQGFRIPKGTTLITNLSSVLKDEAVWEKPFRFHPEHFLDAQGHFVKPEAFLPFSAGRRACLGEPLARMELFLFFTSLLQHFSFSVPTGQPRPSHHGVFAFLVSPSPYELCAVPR
Assay: Inhibition of CYP2D6 (unknown origin) preincubated for 10 mins followed by NADP addition measured after 50 mins
Assay type: ADME
ASSAY_ENDPOINT: pIC50
One number for each entry, as −log10 of the molar value.

Enquiry: Requested read-out pIC50, target or system Cytochrome P450 2D6 (Homo sapiens), entry "Cc1cccc2sc(NC(=O)CCN3CCN(c4ccncc4)CC3)nc12"
Return: 4.87

====

Target: Cholinesterase (Homo sapiens)
Sequence (P06276 whole entry): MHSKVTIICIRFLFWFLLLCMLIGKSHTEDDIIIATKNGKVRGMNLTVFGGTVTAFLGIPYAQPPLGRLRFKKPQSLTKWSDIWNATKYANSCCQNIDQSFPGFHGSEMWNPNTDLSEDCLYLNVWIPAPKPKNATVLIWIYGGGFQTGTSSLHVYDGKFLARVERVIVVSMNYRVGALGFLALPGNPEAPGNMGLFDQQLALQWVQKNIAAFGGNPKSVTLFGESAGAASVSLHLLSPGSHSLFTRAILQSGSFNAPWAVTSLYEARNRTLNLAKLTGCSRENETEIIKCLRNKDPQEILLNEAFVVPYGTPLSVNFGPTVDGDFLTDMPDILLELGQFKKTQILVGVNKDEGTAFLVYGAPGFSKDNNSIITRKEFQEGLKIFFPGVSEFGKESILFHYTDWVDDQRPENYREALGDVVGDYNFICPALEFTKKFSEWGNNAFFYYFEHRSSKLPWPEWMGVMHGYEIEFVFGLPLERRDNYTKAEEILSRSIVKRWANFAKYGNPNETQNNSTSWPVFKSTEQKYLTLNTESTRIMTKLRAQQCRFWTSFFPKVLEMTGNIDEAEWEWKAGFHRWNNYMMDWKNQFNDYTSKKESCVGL
Assay: Inhibition of human recombinant BuChe using butyrylthiocholine iodide as substrate incubated for 10 mins by DTNB reagent based Ellman's method
Would you mind telling me the reported pIC50 of each entry?
Numbers only, as −log10 of the molar value.

Previously resolved entries follow.
Cc1cccc2sc(NC(=O)CCN3CCN(Cc4ccc(C(C)(C)C)cc4)CC3)nc12; 5.03
CC(=O)c1ccc(N2CCN(CCC(=O)Nc3nc4c(C)cccc4s3)CC2)cc1; 5.52
Cc1cccc2sc(NC(=O)CCN3CCN(Cc4ccccc4F)CC3)nc12; 5.54
CCOCCN1CCN(CCC(=O)Nc2nc3c(C)cccc3s2)CC1; 4.41
Cc1cccc2sc(NC(=O)CCN3CCN(Cc4cc(F)ccc4F)CC3)nc12; 5.12

For the 7 compounds below, give their pIC50 values.
1. Cc1cccc2sc(NC(=O)CCN3CCN(Cc4cccc5ccccc45)CC3)nc12
2. Cc1cccc2sc(NC(=O)CCN3CCN(CC4CCCO4)CC3)nc12 (racemic)
3. Cc1cccc2sc(NC(=O)CCN3CCN(CC4CCCCC4)CC3)nc12
4. CCCCN1CCN(CCC(=O)Nc2nc3c(C)cccc3s2)CC1
5. Cc1ccccc1N1CCN(CCC(=O)Nc2nc3c(C)cccc3s2)CC1
6. CCCCCCN1CCN(CCC(=O)Nc2nc3c(C)cccc3s2)CC1
7. Cc1cccc2sc(NC(=O)CCN3CCN(C(C)C)CC3)nc12

Return:
4.48
4.89
5.12
4.52
5.06
4.53
4.84

Enquiry: What value of measured pIC50 is listed for "Cc1cccc2sc(NC(=O)CCN3CCN(C4CCCCC4)CC3)nc12" ?
Return: 5.50
